System: UO-31
assaySummary: NCI tumour cell line growth inhibition, 48 h
Active and inactive are the calls of the source. Cut-off read from the data, not from the text of the source: active = GI50 up to about 1.1 µM and inactive = higher.
Possible outcomes: active, inactive

compound	systemName	assignedCategory
Oc1cc(-c2cccc(C(F)(F)F)c2)nc2cc3c(cc12)OCO3	UO-31	inactive
BrCCCCCOc1ccc(-c2c3ccccc3c(-c3ccc(OCCCCCBr)cc3)c3ccccc23)cc1	UO-31	inactive
COCCOC(=O)c1c(C)[n+]([O-])c2cc(Cl)c(Cl)cc2[n+]1[O-]	UO-31	active
Cc1cccc(CC(C)(C)C)c1NC(=O)C(=O)C(C(=O)c1ccc2ccccc2c1)C1OC(=O)c2ccccc21 (centres undefined)	UO-31	inactive
COC(=O)c1ccc2c(c1)CC1(C2)Cc2cc3c(c(C(=O)OC)c2C1)CCCC3 (centres undefined)	UO-31	inactive
CCO/C=N/NC(=O)CSc1nc2ccc(I)cc2c(=O)n1Cc1ccccc1	UO-31	inactive
CC(=O)NNC1=NN(C(C)=O)C2(S1)C(=O)Nc1ccc(C)cc12 (centres undefined)	UO-31	inactive
CC1=CCC[C@H]2[C@](C)(CC3=CC(=O)C(Sc4ccccc4)=CC3=O)[C@@H](C)CC[C@]12C	UO-31	inactive
CCOC(=O)CSc1nc(-c2ccc(Cl)cc2)c(C#N)c(=O)[nH]1	UO-31	inactive
O=c1cccccc1NCCCCCCCCCNc1cccccc1=O	UO-31	inactive
COc1ccc2[nH]c(CCNC(=O)c3cc([N+](=O)[O-])cc([N+](=O)[O-])c3)cc2c1	UO-31	inactive
O=C1C2=C(SCCS2)C(=O)c2ccccc21	UO-31	inactive
COc1ccc(/C=C\c2cc(OC)c(O[Si](C)(C)C(C)(C)C)c(OC)c2)cc1	UO-31	inactive
[N-]=[N+]=NC1CC(n2ccc(N)nc2=O)OC1COP(=O)(O)OP(=O)(O)OP(=O)(O)O (centres undefined)	UO-31	inactive
N#C/C(=C\NC(=S)Nc1ccc(S(=O)(=O)Nc2ccccn2)cc1)C(N)=O	UO-31	inactive
COc1cc2c(cc1OC)[C@]1(O)C(=O)c3ccc4c(c3O[C@@H]1CO2)C[C@H](C(C)(C)O)O4	UO-31	inactive
Cc1cc(N(CCOS(C)(=O)=O)CCOS(C)(=O)=O)ccc1C=O	UO-31	inactive
O=C(Nc1ccccc1F)c1cc2ccc(O)cc2o/c1=N\c1cccc(C(F)(F)F)c1	UO-31	inactive
CC1CC(c2ccc(Cl)cc2)=Nc2ccccc2S1 (centres undefined)	UO-31	inactive
S=CN1CCCCC1	UO-31	inactive
C/C(=N\NC(=S)NC(C)(C)C)c1nc2cccnc2[nH]1	UO-31	active
CNc1nc2c(C)ccc3nc(N(C)C)[nH]c3c-2n1	UO-31	inactive
COc1ccc(-c2nc3cc(F)ccc3s2)cc1O	UO-31	inactive
C#CCC(O)c1ccccc1C(O)CC#C (centres undefined)	UO-31	inactive
CCCCCCCCCCCCCCCCCCNc1ccn(C2OC(COP(=O)(O)OCC3CCC(n4cnc5c(=O)[nH]cnc54)O3)C(O)C2O)c(=O)n1 (centres undefined)	UO-31	inactive
NS(=O)(=O)c1nnc(NC(=O)CCC(=O)O)s1	UO-31	inactive
N#Cc1ccc(C(C2C(=O)NC(=O)NC2=O)C2C(=O)NC(=O)NC2=O)cc1	UO-31	inactive
N#CC1C2CCC3(CC2CCN1C(=O)c1ccccc1)OCCO3 (centres undefined)	UO-31	inactive
Cc1cc(CNC(=O)OCc2ccccc2)c(C)c2c1Oc1ccccc1O2	UO-31	inactive
CC(=O)C1(c2ccccc2)CCN(Cn2sc3nc(C)cc(C)c3c2=O)CC1	UO-31	inactive
CC(C)(C)C(=O)C1CC(=O)c2ccccc2C1=O (centres undefined)	UO-31	inactive
Cc1cc(C)nc(NS(=O)(=O)c2ccc(Nc3c4ccccc4nc4c(C(=O)Nc5ccc(S(=O)(=O)N=C(N)N)cc5)cccc34)cc2)n1	UO-31	inactive
C=C1C(=O)O[C@@H]2C[C@]3(C)CC[C@]4(C)[C@H](CC[C@@H]5[C@@]6(C)CCC(=O)C(C)(C)[C@@H]6CC[C@]54C)[C@H]3[C@H]12 [OCHRACEOLIDE A]	UO-31	inactive
CCOC(=O)NC(=O)c1cn(C2OC(COC(=O)CCCCCCCCC(=O)OCC3OC(n4cc(C(=O)NC(=O)OCC)c(=O)[nH]c4=O)C(O)C3O)C(O)C2O)c(=O)[nH]c1=O (centres undefined)	UO-31	inactive
c1ccc(Nc2nnc(Cn3ccc4ccccc43)s2)cc1	UO-31	inactive
COc1ccc(-c2c3c(n(C4OC(CO)C(O)C(O)C4O)c(=S)c2C#N)CC(C)(C)CC3=O)cc1 (centres undefined)	UO-31	inactive
Cc1ccc(Cl)c2c(=O)c3ccc(N)cc3sc12	UO-31	inactive
C=C(C(=O)O[C@H]1C/C(C)=C/CC/C(CO)=C/[C@H]2C(=O)OC(=C)[C@H]12)C(O)CO (some centres undefined)	UO-31	inactive
CNC(=O)OCc1c(COC(=O)NC)c(-c2ccc(-c3ccccc3)cc2)n(C)c1C	UO-31	inactive
